- System: Severe acute respiratory syndrome-related coronavirus
- TEST: Inhibition of N7-MTase activity of N-terminal His6-tagged SARS-CoV nsp14 expressed in Escherichia coli using GpppAC4 and [3H]SAM as substrate at 50 uM preincubated with enzyme followed by substrate addition and measured after 30 mins by filter binding assay
What inhibition was measured for each of the following?

Previously resolved entries follow.
Memo: Nc1ncnc2c1ncn2[C@@H]1OC(CN(CCO[C@@H]2[C@H](O)C(CO)O[C@H]2n2cnc3c(N)ncnc32)S(=O)(=O)c2ccc([N+](=O)[O-])cc2)[C@@H](O)[C@H]1O (single isomer, unassigned) , reported inhibition: 88.6%

Memo: Nc1ncnc2c1ncn2[C@@H]1OC(CN(CCO[C@@H]2[C@H](O)C(CO)O[C@H]2n2cnc3c(N)ncnc32)Cc2ccc(Cl)c([N+](=O)[O-])c2)[C@@H](O)[C@H]1O (single isomer, unassigned) , reported inhibition: 94%

Memo: Nc1ncnc2c1ncn2[C@@H]1O[C@H](C[C@@H](N)CC[C@H](N)C(=O)O)[C@@H](O)[C@H]1O , reported inhibition: 98.3%

Memo: Nc1ncnc2c1ncn2[C@@H]1OC(CN(CCO[C@@H]2[C@H](O)C(CO)O[C@H]2n2cnc3c(N)ncnc32)S(=O)(=O)c2ccc(Cl)cc2)[C@@H](O)[C@H]1O (single isomer, unassigned) , reported inhibition: 96.2%

Memo: COc1cc([N+](=O)[O-])ccc1S(=O)(=O)N(CCO[C@@H]1[C@H](O)C(CO)O[C@H]1n1cnc2c(N)ncnc21)CC1O[C@@H](n2cnc3c(N)ncnc32)[C@H](O)[C@@H]1O (single isomer, unassigned) , reported inhibition: 47.6%

Report inhibition for every entry below.
1. COc1ccc(S(=O)(=O)N(CCO[C@@H]2[C@H](O)C(CO)O[C@H]2n2cnc3c(N)ncnc32)CC2O[C@@H](n3cnc4c(N)ncnc43)[C@H](O)[C@@H]2O)c([N+](=O)[O-])c1 (single isomer, unassigned)
2. COC(=O)[C@@H](N)CCN(CCO[C@@H]1[C@H](O)[C@@H](CO)O[C@H]1n1cnc2c(N)ncnc21)C[C@H]1O[C@@H](n2cnc3c(N)ncnc32)[C@H](O)[C@@H]1O
3. Nc1ncnc2c1ncn2[C@@H]1OC(CN(CCCc2ccccc2)CCO[C@@H]2[C@H](O)C(CO)O[C@H]2n2cnc3c(N)ncnc32)[C@@H](O)[C@H]1O (single isomer, unassigned)
4. Nc1ncnc2c1ncn2[C@@H]1OC(CN(CCO[C@@H]2[C@H](O)C(CO)O[C@H]2n2cnc3c(N)ncnc32)S(=O)(=O)c2ccc(C(F)(F)F)cc2[N+](=O)[O-])[C@@H](O)[C@H]1O (single isomer, unassigned)

1: 96.6%; 2: 30.6%; 3: 38.4%; 4: 94.6%
